Source listed as patent US5824698A.

Counter-ions that a name gives are not always drawn.
MIC data for E. coli 1346 follow.
Property Label: MIC

# Molecule, Property Label, Experimental Result
records = [
    ("Oc1ccc(-c2nc3ccc(-c4ccc5nc(-c6ccc(O)cc6)[nH]c5c4)cc3[nH]2)cc1 [Example 5, hydrochloride]", "MIC", "≤ 0.12 µg/mL"),
    ("Nc1ccc(-c2nc3ccc(-c4ccc5nc(-c6ccc(N)cc6)[nH]c5c4)cc3[nH]2)cc1", "MIC", "≤ 0.12 µg/mL"),
    ("COc1ccc(-c2nc3ccc(-c4ccc5nc(-c6ccc(OC)c(O)c6)[nH]c5c4)cc3[nH]2)cc1O", "MIC", "≤ 0.25 µg/mL"),
]
